Taken from patent US10035790B2.

biological target: ligand binding domain of human RORγ (A262-S507) (Homo sapiens); construct: made in house; host or cells: E. coli; experiment: General RORγ SPA binding assay (competition with [3H]25-hydroxycholesterol); conditions: RORγ SPA binding assay, inhibition of [3H]25-hydroxycholesterol binding; read-out: IC50
pIC50: −log10 of the molar value.
MEASURE: pIC50

COMPOUND	TARGET	pIC50
CNc1ncc(C(=O)NCc2cccc(Cl)c2)c(C2CCN(C(=O)Cc3c(F)cccc3F)CC2)n1	ligand binding domain of human RORγ (A262-S507) (Homo sapiens)	8.20
Cc1ncc(C(C)(O)CNc2cccc(C(F)(F)F)c2)c(C2CCN(C(=O)Cc3c(F)cccc3F)CC2)n1 (stereo not shown)	ligand binding domain of human RORγ (A262-S507) (Homo sapiens)	8.21
Cc1nc(N)nc(C2CCN(C(=O)Oc3ccc(F)cc3F)CC2)c1-c1nnc(-c2ccnc(C(F)(F)F)n2)o1	ligand binding domain of human RORγ (A262-S507) (Homo sapiens)	7.61
CC(=O)Nc1nc(C)c(C(=O)COc2cccc(C(F)(F)F)n2)c(C2CCN(C(=O)Nc3c(F)cccc3F)CC2)n1	ligand binding domain of human RORγ (A262-S507) (Homo sapiens)	8.21

----------
molecular target: ligand binding domain of human RORγ (A262-S507) (Homo sapiens); construct: made in house; host or cells: E. coli; test: General RORγ SPA binding assay (competition with [3H]25-hydroxycholesterol); conditions: RORγ SPA binding assay, inhibition of [3H]25-hydroxycholesterol binding; read-out: IC50
MEASURE: IC50 (µM)

MOLECULE	IC50 (µM)
Cc1ncc(C(=O)NCc2ccc(Cl)cc2)c(C2CCN(C(=O)Cc3c(F)cccc3F)CC2)n1	0.0434
Cc1nc(N)nc(C2CCN(C(=O)Oc3c(F)cccc3F)CC2)c1-c1nnc(-c2ccnc(C(F)(F)F)n2)o1	0.0061
CSc1nc(C)c(-c2nnc(-c3cccc(C(F)(F)F)n3)o2)c(C2CCN(C(=O)Nc3c(F)cccc3F)CC2)n1	0.0141

(A) Cc1nc(C)c(-c2nnc(-c3ccnc(C(F)(F)F)n3)o2)c(C2CCN(C(=O)Cc3ccccc3F)CC2)n1
(B) C/C(=N\Oc1cc(C)ccc1C)c1cnc(C)nc1C1CCN(C(=O)Cc2c(F)cccc2F)CC1
A or B : whose IC50 is greater? Your answer should be the label of the entry you select.
A
(A: 0.0231 µM, B: 0.0112 µM)

----------
target: ligand binding domain of human RORγ (A262-S507) (Homo sapiens, UniProt P51449); construct: made in house; host or cells: E. coli; experiment: General RORγ SPA binding assay (competition with [3H]25-hydroxycholesterol); conditions: RORγ SPA binding assay, inhibition of [3H]25-hydroxycholesterol binding; read-out: IC50
Sequence (P51449 262-507): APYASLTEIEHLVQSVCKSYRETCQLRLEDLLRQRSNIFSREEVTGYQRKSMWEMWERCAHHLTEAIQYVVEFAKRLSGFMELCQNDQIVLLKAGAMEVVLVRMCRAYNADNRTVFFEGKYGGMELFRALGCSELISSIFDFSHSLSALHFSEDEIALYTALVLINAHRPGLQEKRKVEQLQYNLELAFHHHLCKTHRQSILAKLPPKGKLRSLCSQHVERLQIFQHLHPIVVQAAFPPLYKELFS
MEASURE: IC50 (nM)

Below: 2 compounds and their reported IC50.
MOLECULE	TARGET	IC50 [nM]
O=C(NCc1ccc(Cl)c(Cl)c1)c1cncnc1C1CCN(C(=O)Cc2c(F)ccc(F)c2F)CC1	ligand binding domain of human RORγ (A262-S507) (Homo sapiens, UniProt P51449)	95
Cc1cc(C)cc(CNC(=O)c2cnc(C)nc2C2CCN(C(=O)Cc3cc(F)ccc3F)CC2)c1	ligand binding domain of human RORγ (A262-S507) (Homo sapiens, UniProt P51449)	66

(a) CNc1nc(C)nc(C2CCN(C(=O)Cc3c(F)cccc3F)CC2)c1C(=O)NCc1cccc(Cl)c1
(b) COc1cccc(CNC(=O)c2cnc(C)nc2C2CCN(C(=O)Cc3c(F)cccc3F)CC2)c1
Among a and b , whose measured IC50 is the smaller figure? Lab note: record the label of whichever item you select.
a
